Would you kindly list inhibition for each of these molecules?
Biological target: Serum amyloid P-component (Homo sapiens)
Assay: Inhibition of calcium dependent [125I]serum amyloid P-component (unknown origin) binding to immobilized influenza virus A/Shanghai/24/90 at 200 uM incubated for 2 hrs by fluorescence/electron microscopy relative to control
Number first, unit second.

Worked examples follow.
smiles_representation | measured_endpoint | recorded_measurement
NCCOP(=O)(O)O | inhibition | 51%
C[N+](C)(C)CCOP(=O)([O-])O | inhibition | 5%
O=C(O)[C@H]1CCCN1C(=O)Cc1ccc(CC(=O)N2CCC[C@@H]2C(=O)O)c2ccccc12 | inhibition | 94%
O=C(O)[C@H]1CCCN1C(=O)Cc1cccc(CC(=O)N2CCC[C@@H]2C(=O)O)c1 | inhibition | 77%
COc1cccc(OCC(=O)N2CCC[C@@H]2C(=O)O)c1OCC(=O)N1CCC[C@@H]1C(=O)O | inhibition | 77%
O=C(O)[C@H]1CCCN1C(=O)Cc1cc(O)c(CC(=O)N2CCC[C@@H]2C(=O)O)cc1O | inhibition | 89%
O=C(O)[C@H]1CCCN1C(=O)Cc1ccc(CC(=O)N2CCC[C@@H]2C(=O)O)cc1 | inhibition | 89%
O=C(O)[C@H]1CCCN1C(=O)[C@H]1CC[C@@H](C(=O)N2CCC[C@@H]2C(=O)O)CC1 | inhibition | 89%
O=C(O)[C@H]1CCCN1C(=O)COc1ccc(OCC(=O)N2CCC[C@@H]2C(=O)O)cc1 | inhibition | 84%
O=C(O)[C@H]1CCCN1C(=O)CCCCC(=O)N1CCC[C@@H]1C(=O)O | inhibition | 96%

I have 4 molecules here; please give me inhibition for each one.
1. Cc1c(OCC(=O)N2CCC[C@@H]2C(=O)O)cccc1OCC(=O)N1CCC[C@@H]1C(=O)O
2. O=C(O)[C@H]1CCCN1C(=O)COc1cccc2c(OCC(=O)N3CCC[C@@H]3C(=O)O)cccc12
3. C[C@H](CS)C(=O)N1CCC[C@@H]1C(=O)O
4. O=C(O)[C@H]1CCCN1C(=O)COc1ccccc1OCC(=O)N1CCC[C@@H]1C(=O)O

## Result
81%
76%
51%
93%

---

Biological target: Serum amyloid P-component (Homo sapiens) (UniProt P02743)
Sequence (P02743 whole entry): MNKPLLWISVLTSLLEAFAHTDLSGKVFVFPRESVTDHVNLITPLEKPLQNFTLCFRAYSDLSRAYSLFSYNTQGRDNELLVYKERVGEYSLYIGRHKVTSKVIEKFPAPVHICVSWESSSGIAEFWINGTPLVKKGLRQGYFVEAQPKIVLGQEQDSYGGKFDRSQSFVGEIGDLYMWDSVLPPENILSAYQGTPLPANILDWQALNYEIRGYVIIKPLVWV
Assay: Inhibition of calcium dependent [125I]serum amyloid P-component (unknown origin) binding to immobilized chicken erythrocyte native long chromatin at 200 nM incubated for 2 hrs by gamma counting relative to control
measured_endpoint: inhibition (%)
Give bare numbers, in %.

smiles_representation | unit_of_measure | recorded_measurement
O=C(O)[C@H]1CCCN1C(=O)Cc1ccc(CC(=O)N2CCC[C@@H]2C(=O)O)cc1 | % | 4
O=C(O)[C@H]1CCCN1C(=O)[C@H]1CC[C@@H](C(=O)N2CCC[C@@H]2C(=O)O)CC1 | % | 1
O=C(O)[C@H]1CCCN1C(=O)COc1ccc(OCC(=O)N2CCC[C@@H]2C(=O)O)cc1 | % | 1

Please turn your attention to the following entry.
## Task Fill in reported inhibition for this entry: `O=C(O)[C@H]1CCCN1C(=O)CCCCC(=O)N1CCC[C@@H]1C(=O)O`
## Result 1
